tested on: A549 NSCLC; assay: NCI tumour cell line growth inhibition, 48 h; in the data active means GI50 below about 0.43 µM; inactive means the rest
Just give me one of these, please: active, inactive

Query: Any idea what this test logged for CCC(=O)c1ccc2c(c1)N(CCCN1CCN(CCO)CC1)c1ccccc1S2 ?
Reply: inactive

Query: In this assay, the call recorded for COc1ccc(-c2ccccc2)cc1-c1c(Nc2cc(Cl)cc(Cl)c2O)c(=O)c1=O was what?
Reply: inactive

Query: Recorded test outcome, item O=C1OCC2=C1C(c1cccc(C(F)(F)F)c1)c1cc3c(cc1N2CCO)CCC3 (stereo not drawn)
Reply: active

Query: Short answer needed: outcome of this test for COc1ccc(-c2csc3c2-n2cccc2C3=O)cc1O ?
Reply: active

Query: Can you look up the reported call for Cc1ccc(C[P+](c2ccccc2)(c2ccccc2)c2ccccc2)cc1 for me?
Reply: inactive

Query: // outcome(item) with item = O=[N+]([O-])c1cccc(-c2cc(-c3cc(Br)ccc3O)[nH]n2)c1
Reply: inactive

Query: Which outcome was assigned to COc1cc(-c2n/c(=C\c3c(O)[nH]c4ccccc34)cc3c2=Nc2ccccc2-3)cc(OC)c1OC in this test?
Reply: inactive

Query: Outcome? COc1cc(/C=C2\C(=O)Nc3ccccc32)cc(OC)c1OC
Reply: inactive

====

test system: A549 NSCLC; assay: NCI tumour cell line growth inhibition, 48 h
Please respond with reported TGI for every item in the list.

Query: Give its TGI value. Item: Cc1ccc2nc(N/N=C/c3cccc(C)n3)cc(C)c2c1
Reply: 43.4 µM

Query: Return reported TGI; argument: CC1=CC2CC(C)C1(C)CCc1ccoc12 (stereo not given)
Reply: > 100 µM

Query: If you can, please state the reported TGI value of C=C(C)[C@@H]1CC[C@]2(C(=O)NCCNCCNCCN)CC[C@]3(C)[C@H](CC[C@@H]4[C@@]5(C)CCC(=O)C(C)(C)[C@@H]5CC[C@]43C)[C@@H]12 .
Reply: 15.9 µM

Query: Name the reported TGI value associated with the compound CN(C)CC(NC(NCS)C(=O)NCCNc1ccc(NCCNC(=O)C(NCS)NC(CN(C)C)OCCl)c2c1C(=O)c1c(O)ccc(O)c1C2=O)OCCl (stereo not given)
Reply: 1.54 µM

Query: Quick one: TGI of OCc1ccc(Oc2c3ccccc3nc3occc23)cc1 ?
Reply: > 100 µM

Query: Fill blank: measured TGI of the compound NC(=O)c1c2c(cc3c(=O)c4ccccc4[nH]c13)CCCC2 is ____.
Reply: > 100 µM

Query: Entry COc1ccc2c(c1)[C@@]1(C)CCC3c4ccc(O)cc4CCC3C1C2 (stereo not given in full) : reported TGI = ?
Reply: 32.2 µM

Query: Quick one: TGI of Cc1c(F)c(N)c2c(=O)cc(-c3ccc(NC(=O)C(N)CCCN=C(N)N)c(F)c3)oc2c1F (stereo not given) ?
Reply: > 100 µM

Query: Which TGI value is on record for CC(C)(C)c1cc(C2COC(=O)COCC(=O)OCCOCCOCCO2)cc(C(C)(C)C)c1O (stereo not given) ?
Reply: > 31.6 µM

Query: Data request, read-out TGI, for Cc1ccccc1C(C(=O)NC1CCCCC1)N(C(=O)Cn1ccnc1C)c1cccc(F)c1 (stereo not given)
Reply: > 100 µM

Query: # TGI lookup, item COc1ccccc1NC(=O)C1=C(C)NC(C)=C(C(=O)Nc2ccccc2OC)C1c1cccc2c1OCO2
Reply: > 100 µM

Query: So what's the measured TGI for this one? COc1ccc(C2(C3c4cc(OC)c(OC)cc4CCN3C)SCCCS2)cc1O (stereo not given)
Reply: > 100 µM

Query: Tell me the measured TGI of CCOC(=O)N(C)C1(c2ccccc2)CCN(CCCC(=O)c2ccc(F)cc2)CC1 , please.
Reply: > 100 µM

Query: Quick one: TGI of COc1ccc2c(c1)C(=O)c1c-2n(CCCN2CCOCC2)c(=O)c2cc([N+](=O)[O-])ccc12 ?
Reply: 3.01 µM

Query: Item under review: COC(=O)c1cccc(C(=O)OC)c1 . Reported TGI?
Reply: > 100 µM

Query: Fill blank: measured TGI of the compound Cc1ccc(Oc2nc3ccccc3cc2-c2nnc(Cn3c(COc4ccccc4)nc4ccccc43)o2)cc1 is ____.
Reply: 24.2 µM

Query: Bench note: what TGI did O=c1[nH]c2ccccc2c2oc(-c3ccccc3)nc12 show?
Reply: > 100 µM

Query: Given CC(C)C(C/C=C1\CC(CO)(COC(=O)CC(C(C)C)C(C)C)OC1=O)C(C)C (stereo not given) , state its recorded TGI.
Reply: 18.8 µM

Query: Which TGI value is on record for COc1nc2[nH]ccc2c(=O)n1C ?
Reply: > 100 µM

Query: Given the entry COc1cc2c3c(n(CCCNCCNCCCN)c(=O)c2cc1OC)-c1cc2c(cc1C3=O)OCO2 , report its measured TGI.
Reply: > 100 µM
